# Lookup of reported bioavailability keyed by entry
- measurementProtocol: Oral bioavailability in Han Wistar rat at 2 mg/kg
- Assay type: ADME, organism-based
- testSettings: Han Wistar, in vivo
Return type: number; implicit unit %.

Example molecules with recorded bioavailability:
molecule	reported
COc1cc2ncnc(Nc3cccc(Cl)c3F)c2cc1CN1CCOCC1	44
COc1cc2ncnc(Nc3cccc(Cl)c3F)c2cc1OC(=O)N1CCN(C)C[C@@H]1C	83
COc1cc2ncnc(Nc3cccc(Cl)c3F)c2cc1OC(=O)N1CCN(C)[C@@H](C)C1	24
COc1cc2ncnc(Nc3cccc(Cl)c3F)c2cc1OC(=O)N1CCN(C)C[C@H]1C [AZD-3759]	91

For the next question, use this molecule.
Look up bioavailability: COc1cc2ncnc(Nc3cccc(Cl)c3F)c2cc1OC(=O)N1CCN(C)[C@H](C)C1
92

Hello, the source for this data is ChEMBL document CHEMBL3621142, in case you need it.
